Source of measurements: ChEMBL document CHEMBL1201862

# Tested on: UO-31
# experimentDescription: NCI tumour cell line growth inhibition, 48 h
Active and inactive are the calls of the source. No stated cut-off is given here; in the data, active = GI50 up to about 1.1 µM and inactive = higher.
Log the outcome using a class from active, inactive

Query :: Kindly provide the recorded test outcome for the following compound: CC(=O)N(CN1C(=O)CCC1C(=O)O)c1cccc(O)c1 (stereo unspecified)
Result :: inactive

Query :: # outcome recorded in this test, key = Cc1c(Cl)cccc1NC(=O)c1cccc([N+](=O)[O-])c1O
Result :: inactive

Query :: What classification did COC(=O)c1ccc(CCC2=CC(=O)C(Br)=CC2=O)cc1 end up with in this test?
Result :: inactive

Query :: What is the recorded call for this compound in the test? Cc1cccc2nc3cccc(C(=O)NCCN(C)C)c3nc12
Result :: active

Query :: Test call for this compound, please: CCOC(=O)c1ccc(NCC#CCN2CCOCC2)cc1
Result :: inactive

Query :: // return assay outcome for CCCCOc1ccc(S(=O)(=O)N/C(N)=N/c2ccc(Cl)cc2)cc1
Result :: inactive

Query :: # fetch the recorded call for CCOP1(=O)CC(C)=C(Cl)C(O)C1 (stereo unspecified) here
Result :: inactive

Query :: Recorded test outcome, item CNC(=O)SCC(N)C(=O)O (stereo unspecified)
Result :: inactive

Query :: Hi team, can someone confirm the assay call for COc1c2c(cc3nc4ccccc4nc13)CC[C@H](NC(C)=O)c1cc(=O)c(SC)ccc1-2 ?
Result :: inactive

Query :: Name the outcome recorded for N#CCc1ccc(C(C#N)/C(CCCC(=O)Nc2cccc([N+](=O)[O-])c2)=N/NC(N)=S)cc1 (stereo unspecified) in the assay.
Result :: inactive

Query :: Please let me know the test result on file for CC(=O)OC/C=C/Cn1ncc(=O)[nH]c1=O .
Result :: inactive

###

# Tested on: PC-3
# experimentDescription: NCI tumour cell line growth inhibition, 48 h
Activity calls are given as the source filed them. Cut-off read from the data, not from the text of the source: active = GI50 up to about 1.1 µM and inactive = higher.
readoutName: GI50

The compound listed as CCOc1cn(C2CC(O)C(CO)O2)c(=O)[nH]c1=O (stereo not drawn) shows GI50 equal to > 100 µM (inactive)

response.value for O=C1c2c(ccc3c2CCC3)CC12Cc1ccccc1C2 (field: GI50) = 25.1 µM (inactive)

Memo: Cc1ccc(-c2nc(Cc3n[nH]c(-c4ccc(C)cc4)n3)n[nH]2)cc1 , reported GI50: > 100 µM (inactive)

compound c1ccc2c(OCC3CO3)ccc(OCC3CO3)c2c1 (stereo not drawn) , GI50 observed: 4.76 µM (inactive)

Sure, the documented GI50 for O=C([O-])C(O)C(O)C(=O)O.[K+] (stereo not drawn) [POTASSIUM HYDROGENTARTRATE] is > 100 µM (inactive)

According to the records, this compound CSC12c3cc(C)n(-c4ccc([N+](=O)[O-])cc4)c3CC(C)(C)CN1C(=O)C2Oc1ccccc1 (stereo not drawn) displays GI50 of > 100 µM (inactive)

GI50 reported for this compound NC1=CN2c3ccccc3N(CC(=O)N3CCOCC3)C2C=C1 (stereo not drawn) : > 100 µM (inactive)

Notebook: CC(C)(C)N1Cc2ccccc2/C(=C/Sc2ccccc2)C1=O , GI50 read as 12.6 µM (inactive)

###

# System: KM12
# experimentDescription: NCI tumour cell line growth inhibition, 48 h
Active and inactive are the calls of the source. Rule as the data show it: active = GI50 up to about 1.1 µM and inactive = higher.
Exercise: state measured GI50 for each of the compounds provided.

GI50 reported for this compound c1ccc(C2(c3cc4ccccc4[nH]3)OCCO2)cc1 : 37.8 µM (inactive)

Just so you know, measured GI50 for COC(=O)c1cc2ccc(O)c(O)c2cn1 came out at 18.1 µM (inactive)

The value of GI50 measured for the compound O=[N+]([O-])c1ccc2c(c1)Sc1ccccc1N2 turned out to be > 100 µM (inactive)

Lookup result for O=C1C(Cl)=C(NCCO)C(=O)c2c(O)ccc(O)c21 ; measured GI50: 2.05 µM (inactive)

Reported GI50 of COC(=O)Cc1c([C@H]2[C@H](CC(=O)OC)c3ccccc3N2C(C)=O)[nH]c2ccccc12 : > 100 µM (inactive)

Briefly, GI50 measured for CNC(=O)SCC(N)C(=O)O (stereo unspecified) : > 100 µM (inactive)

response.value for CCOC1=NC(C(F)(F)F)(C(F)(F)F)N=C(N2CCCCC2)O1 (field: GI50) = > 100 µM (inactive)

The recorded GI50 for CC(=O)Nc1ccccc1SCCSSCCSc1ccccc1NC(C)=O is 40.1 µM (inactive)

Per the records, this compound ( CCCn1c(SCC)c2cc3cc4ccccc4cc3cc2c1-c1nc(F)nc(F)n1 ) has GI50 equal to > 100 µM (inactive)

Given item CN(C)c1ccc(/N=N/c2ccc3[nH]cnc3c2)cc1 , the value recorded as its GI50 is 29.2 µM (inactive)

// GI50 value for CC1=C(O)C(O)=C(C2=C(O)C(O)=C(C)C(=O)C2=O)C(=O)C1=O : 38.5 µM (inactive)
